Tested on: P388 leukemia ip, CD2F1 mice, survival T/C
Experiment: NCI In Vivo Anticancer Drug Screen. Data for tumor model P388 Leukemia (intraperitoneal) in CD2F1 (CDF1) mice
Conditions: endpoint: median survival time; dose: 200.0 mg/kg/injection; schedule: Q04DX003 (ip); vehicle: Klucel (hydroxypropylcellulose) (HPC); higher = longer survival
Toxic doses and inconclusive results are not listed.
ASSAY READOUT: T/C

INSERT INTO measurements (molecule, reported) VALUES
  ('CC(C)(C)C1(C#N)C(=O)N(c2ccc(N3C(=O)C(C#N)(C(C)(C)C)C34c3ccccc3-c3ccccc34)cc2)C12c1ccccc1-c1ccccc12 (centres undefined)', '93 % of control'),
  ('Cc1cc(=O)n2c(-c3ccccc3)csc2n1', '110 % of control'),
  ('Cc1ccc(S(=O)(=O)OCCN(CCN(CCOS(=O)(=O)c2ccc(C)cc2)c2ccccc2)c2ccccc2)cc1', '110 % of control'),
  ('CN(C)c1ccc(C(Nc2ccc(S(=O)(=O)Nc3ccccc3)cc2)c2ccc(N(C)C)cc2)cc1', '110 % of control'),
  ('C=C1C(=O)OC2CCCCC12 (centres undefined)', '101 % of control'),
  ('C/C=C/C=c1/[nH]c(=O)/c(=C\C)[nH]c1=O', '90 % of control'),
  ('Cc1ccc2c(c1)-c1[nH]c3ccccc3c1CS2', '115 % of control'),
  ('COCC1(C)CCCC2(C)C3=C(CCC(=O)C3)CCC12 (centres undefined)', '101 % of control'),
  ('CN(C)c1ccc(N=C(C#N)c2ccc(Cl)cc2)cc1', '103 % of control');

Entry source: PubChem BioAssay AID330
